- assayedTarget: T1, N-terminally His6-tagged human PCNA (proliferating cell nuclear antigen) (human, UniProt P12004 1-261)
- T1 construct: Proliferating cell nuclear antigen, human; The tag is used for capture in SPR; source: E. coli BL21(DE3), purified (Ni-NTA, SEC)
- T1 sequence (P12004 whole entry): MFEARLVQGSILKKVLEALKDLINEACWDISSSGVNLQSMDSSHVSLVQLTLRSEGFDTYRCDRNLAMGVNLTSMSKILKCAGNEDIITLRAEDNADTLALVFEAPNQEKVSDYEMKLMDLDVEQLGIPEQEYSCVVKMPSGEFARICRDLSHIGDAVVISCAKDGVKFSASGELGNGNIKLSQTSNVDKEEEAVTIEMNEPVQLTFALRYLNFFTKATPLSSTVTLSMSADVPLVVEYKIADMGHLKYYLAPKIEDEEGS
- measurementNotes: SPR; Biacore T200, single-cycle; His6-PCNA captured by anti-His antibody coupled to a CM5 chip, peptides injected (five twofold dilutions); 10 mM HEPES, 150 mM NaCl, 0.05% P20, pH 7.4; 25 °C; kinetic fit for p21, steady-state fit for the other peptides
- measurementContext: both partners purified
resultType: Kd (µM)
Give your result in µM as a bare value.

Some solved entries appear below for comparison.
binder | endpointResult
Ac-MDRWLVKW-NH2 (also called APIM peptide; source: synthetic peptide, > 95% purity) [synthetic peptide harboring an APIM (Ac-MDRWLVKW-NH2)] | 11
Ac-TQGRLDDFFKVTGSL-NH2 (Flap endonuclease 1 (FEN1), human, canonical PIP-box; source: peptide, > 95% purity) [FEN1 peptide (Ac-TQGRLDDFFKVTGSL-NH2)] | 45
Ac-RQTSMTDFYHSKRRL-NH2 (also called initial p21 peptide; p21 peptide; source: peptide, > 95% purity) [p21^143–157 peptide (Ac-RQTSMTDFYHSKRRL-NH2)] | 0.08

// next entry
Assign Kd to the following record: Ac-RQSTLYSFFPKSPAL-NH2 (DNA mismatch repair protein MSH6, human, canonical PIP-box at the very N-terminus; source: peptide, > 95% purity) [MSH6 peptide (Ac-RQSTLYSFFPKSPAL-NH2)]
2.9
